# Assay Target: HLA-C0602 (Homo sapiens, UniProt P10321, A176E/A330V/C350S/L171W/L180W/L218V/M285V/M309V/M331V/N104K/P208H/Q277E/Q291P/R121W/S101N/S123Y/S297R/T329A/T363A/V319A/V328M)
# Assay Notes: Competitive peptide binding assay, CIR-C0602
Peptide text beside a SMILES is read from it.
Result Type: IC50

INPUT: Returns the measured IC50 for the input compound. Input: C[C@@H](O)[C@H](NC(=O)[C@H](CCC(N)=O)NC(=O)[C@H](CC(=O)O)NC(=O)[C@H](Cc1c[nH]c2ccccc12)NC(=O)[C@H](Cc1ccc(O)cc1)NC(=O)[C@H](CCCCN)NC(=O)[C@H](Cc1ccccc1)NC(=O)[C@@H](N)Cc1ccc(O)cc1)C(=O)N[C@@H](Cc1ccc(O)cc1)C(=O)O [Epitope M122] (H-YFKYWDQTY-OH; N-terminus and C-terminus assumed)
OUTPUT: > 15 µM

INPUT: # get_value(readout='IC50', item= CSCC[C@H](NC(=O)[C@H](C)NC(=O)[C@@H](N)Cc1ccccc1)C(=O)N[C@@H](CCC(N)=O)C(=O)N[C@@H](CCSC)C(=O)N[C@@H](C)C(=O)N[C@@H](Cc1ccc(O)cc1)C(=O)N[C@@H](CCCNC(=N)N)C(=O)N[C@@H](Cc1ccccc1)C(=O)O [Epitope M63] )
OUTPUT: > 15 µM

INPUT: Requested field: IC50. Item: CC[C@H](C)[C@H](NC(=O)[C@H](CC(N)=O)NC(=O)[C@H](CC(=O)O)NC(=O)[C@H](CO)NC(=O)[C@H](CO)NC(=O)[C@@H](N)CO)C(=O)N[C@@H](C)C(=O)N[C@@H](CC(C)C)C(=O)N[C@@H](CC(C)C)C(=O)O [Epitope M111] (H-SSSDNIALL-OH; N-terminus and C-terminus assumed)
OUTPUT: 5 to 15 µM

INPUT: What does the data say about its IC50? Entry: CC(C)C[C@H](NC(=O)[C@@H](NC(=O)[C@@H]1CCCN1C(=O)[C@H](CC(N)=O)NC(=O)[C@H](CC(=O)O)NC(=O)[C@H](Cc1ccccc1)NC(=O)[C@H](CCCNC(=N)N)NC(=O)[C@@H](N)CCCCN)C(C)C)C(=O)N1CCC[C@H]1C(=O)N[C@@H](Cc1ccccc1)C(=O)O [Epitope M125] (H-KRFDNPVLPF-OH; N-terminus and C-terminus assumed)
OUTPUT: 5 to 15 µM

INPUT: IC50 for CC(C)[C@H](NC(=O)[C@H](CC(N)=O)NC(=O)[C@H](Cc1ccc(O)cc1)NC(=O)[C@H](C)NC(=O)[C@@H](N)CCCCN)C(=O)N[C@H](C(=O)N[C@@H](CCC(N)=O)C(=O)N[C@@H](C)C(=O)N[C@@H](Cc1ccccc1)C(=O)O)[C@@H](C)O [Epitope M11] (H-KAYNVTQAF-OH) ?
OUTPUT: < 5 µM

INPUT: Sample CC(C)[C@H](NC(=O)CNC(=O)[C@H](Cc1c[nH]cn1)NC(=O)[C@@H]1CCCN1C(=O)[C@H](C)NC(=O)[C@H](CO)NC(=O)[C@@H](N)CCC(N)=O)C(=O)N[C@H](C(=O)N[C@@H](Cc1ccccc1)C(=O)O)C(C)C [Epitope M69] (H-QSAPHGVVF-OH; N-terminus and C-terminus assumed) — what was its IC50?
OUTPUT: > 15 µM

The reported numbers originate from paper PMC12133982.
